Tested on: primary hepatocytes isolated from rats
experimental-protocol: Hepatocyte protective effect against doxorubicin-induced hepatocyte toxicity (WST-1 viability)
Format: cell-based
condition-summary: Hepatocyte; against doxorubicin treatment; primary rat hepatocytes pretreated with compound 30 min; viability by WST-1 after 24-48 hours; concentration giving 50% of maximum protective effect
# Yes = EC50 below 300 nM (exclusive); No = EC50 at/above 300 nM

See these solved cases before continuing.
CC(C)CCNc1cc(Cl)cc2cc(C(=O)N3CCC(CN)C3)[nH]c12 (centres unmarked) :: Yes
CC(C)CCN(CCC(C)C)c1cc(Cl)cc2cc(C(=O)N3C[C@@H](CN4CCCC4)[C@H](c4ccc(F)cc4F)C3)[nH]c12 :: Yes
CCCCCNc1cc(Cl)cc2cc(C(=O)N3CCC(CN)C3)[nH]c12 (centres unmarked) :: Yes
Cc1cc(NC2CCOCC2)c2[nH]c(C(=O)N3CC[C@H](C(=O)O)C3)cc2c1 :: No
NCC1CCN(C(=O)c2cc3cc(Cl)cc(N(CC4CC4)CC4CC4)c3[nH]2)C1 (centres unmarked) :: No

Ask: is_below(EC50, 300 nM) for O=C(Nc1cccc(CN2CCOCC2)c1)c1cc2cc(Cl)cc(NC3CCNCC3)c2[nH]1 ?
Result: Yes

Ask: Just wondering, is EC50 of N[C@H]1CCN(C(=O)c2cc3cc(Cl)cc(NC4CCCC4)c3[nH]2)C1 below 300 nM?
Result: No

Ask: Input Cc1cc(NC2CCCC2)c2[nH]c(C(=O)N3CCNCC3)cc2c1 ; condition: EC50 strictly below 300 nM. Does it hold?
Result: Yes
